Reference for the values: patent US10973840B2

Test system: HT-1080 fibrosarcoma cells
Experiment: MTT cell viability assay, HT-1080
Format: cell-based, human
Conditions: Homo sapiens, HT-1080, 72 h, HT-1080, 1% O2, 72 h; read-out: IC50 of anthracyclines
reportedMetric: pIC50
# pIC50: negative log10 of molar concentration; output just the value

1. COc1cccc2c1C(=O)c1c(O)c3c(c(O)c1C2=O)C[C@@](O)(C(=O)CO)C[C@@H]3O[C@H]1C[C@H](N)[C@H](O)[C@H](C)O1: 6.52

Shift focus to the following entry.
Query: Any idea what its pIC50 is? The compound is O=C1c2c(O)ccc(O)c2C(=O)c2c(NCCNCCO)ccc(NCCNCCO)c21
Reply: 6.35
